# Protocol Text: Cmax in cynomolgus monkey at 10 mg/kg, po
# Type: ADME, organism-based, Macaca fascicularis
# Parameters: dose 10 mg/kg, route oral
# Protocol Conditions: in vivo

| Compound | Unit Abbrev | Cmax |
| --- | --- | --- |
| COC[C@@H](C1CC1)n1cc(Cl)nc(Nc2cc(C)c(OC)cc2C)c1=O | µM | 0.032 |

---

# Protocol Text: Clearance in Sprague-Dawley rat at 2 mg/kg, iv
# Assay type: ADME, organism-based
# Set-up: dose 2 mg/kg, route intravenous
# Protocol Conditions: in vivo

| Compound | Unit Abbrev | clearance |
| --- | --- | --- |
| COC[C@@H](C1CC1)n1cc(Cl)nc(Nc2cc(C)c(OC)cc2C)c1=O | mL/min/kg | 170 |

---

# Assay System: Corticotropin-releasing factor receptor 1 (Rattus norvegicus)
# Sequence (P35353 whole entry): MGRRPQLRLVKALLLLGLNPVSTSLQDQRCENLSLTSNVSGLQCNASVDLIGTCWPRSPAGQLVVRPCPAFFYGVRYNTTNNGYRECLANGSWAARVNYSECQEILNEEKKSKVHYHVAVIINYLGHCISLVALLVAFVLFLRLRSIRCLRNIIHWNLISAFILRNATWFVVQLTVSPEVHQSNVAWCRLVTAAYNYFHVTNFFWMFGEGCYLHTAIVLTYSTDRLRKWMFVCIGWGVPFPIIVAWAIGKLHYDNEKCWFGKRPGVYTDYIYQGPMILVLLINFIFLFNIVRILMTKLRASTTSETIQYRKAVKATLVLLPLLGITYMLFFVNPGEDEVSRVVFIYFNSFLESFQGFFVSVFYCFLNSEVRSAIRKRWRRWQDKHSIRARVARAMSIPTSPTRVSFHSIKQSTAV
pIC50: −log10 of the molar value.
Test Readout: pIC50

| Compound | Test Readout | Obs Value |
| --- | --- | --- |
| CC[C@H](C1CC1)n1cc(Cl)nc(Nc2c(Cl)cc(C#N)cc2Cl)c1=O | pIC50 | 8.92 |
| CCCC(CCC)n1cc(Cl)nc(Nc2cc(C)c(OC)cc2C)c1=O | pIC50 | 9.21 |
| CCC(CC)n1cc(Cl)nc(Nc2c(C)cc(C)cc2C)c1=O | pIC50 | 8.54 |

---

# Protocol Text: Volume of distribution at steady state in Sprague-Dawley rat at 2 mg/kg, iv
# Assay type: ADME, organism-based
# Parameters: dose 2 mg/kg, route intravenous
# Protocol Conditions: in vivo, read-out: Vdss
Test Readout: Vd (L/kg)

| Compound | Obs Value |
| --- | --- |
| COC[C@@H](C1CC1)n1cc(Cl)nc(Nc2cc(C)c(OC)cc2C)c1=O | 97 |

---

# Protocol Text: AUC in Sprague-Dawley rat at 10 mg/kg, po
# Format: ADME, organism-based
# Design: dose 10 mg/kg, route oral
# Protocol Conditions: plasma

| Compound | Unit Abbrev | AUC |
| --- | --- | --- |
| COC[C@@H](C1CC1)n1cc(Cl)nc(Nc2cc(C)c(OC)cc2C)c1=O | µM·h | 0.36 |

---

# Test system: Rattus norvegicus
# Protocol Text: Plasma concentration in Sprague-Dawley rat at 3 mg/kg, po
# Type: ADME, organism-based
# Design: dose 3 mg/kg, route oral
# Protocol Conditions: in vivo

| Compound | concentration [nM] |
| --- | --- |
| COC[C@@H](C1CC1)n1cc(Cl)nc(Nc2cc(C)c(OC)cc2C)c1=O | 14 |

---

# Protocol Text: Oral bioavailability in cynomolgus monkey at 10 mg/kg
# Assay type: ADME, organism-based, Macaca fascicularis
# Protocol Conditions: in vivo

| Compound | bioavailability (%) |
| --- | --- |
| COC[C@@H](C1CC1)n1cc(Cl)nc(Nc2cc(C)c(OC)cc2C)c1=O | 2 |

---

# Protocol Text: Oral bioavailability in Sprague-Dawley rat at 10 mg/kg
# Type: ADME, organism-based
# Protocol Conditions: in vivo

| Compound | Unit Abbrev | bioavailability |
| --- | --- | --- |
| COC[C@@H](C1CC1)n1cc(Cl)nc(Nc2cc(C)c(OC)cc2C)c1=O | % | 14 |

---

# Tested on: Rattus norvegicus
# Protocol Text: Plasma concentration in Sprague-Dawley rat at 10 mg/kg, po
# Format: ADME, organism-based
# Design: dose 10 mg/kg, route oral
# Protocol Conditions: in vivo
Test Readout: concentration (nM)

| Compound | Assay System | Test Readout | Obs Value |
| --- | --- | --- | --- |
| COC[C@@H](C1CC1)n1cc(Cl)nc(Nc2cc(C)c(OC)cc2C)c1=O | Rattus norvegicus | concentration | 76 |

---

# Tested on: Rattus norvegicus
# Protocol Text: Plasma concentration in Sprague-Dawley rat at 1 mg/kg, po
# Format: ADME, organism-based
# Design: dose 1 mg/kg, route oral
# Protocol Conditions: in vivo

| Compound | concentration / nM |
| --- | --- |
| COC[C@@H](C1CC1)n1cc(Cl)nc(Nc2cc(C)c(OC)cc2C)c1=O | 4.9 |

---

# Protocol Text: Clearance in cynomolgus monkey at 2 mg/kg, iv
# Assay type: ADME, organism-based, Macaca fascicularis
# Parameters: dose 2 mg/kg, route intravenous
# Protocol Conditions: in vivo
Test Readout: clearance (mL/min/kg)

| Compound | Test Readout | Obs Value |
| --- | --- | --- |
| COC[C@@H](C1CC1)n1cc(Cl)nc(Nc2cc(C)c(OC)cc2C)c1=O | clearance | 21 |

---

# Assay System: Corticotropin-releasing factor receptor 1 (Rattus norvegicus, UniProt P35353)
Response field label: string, one of YES (IC50 strictly below 1 nM) or NO.

| Compound | Assay System | Label Value |
| --- | --- | --- |
| CCc1cn([C@H](C)C2CC2)c(=O)c(Nc2ccc(OC)nc2C(F)(F)F)n1 | Corticotropin-releasing factor receptor 1 (Rattus norvegicus, UniProt P35353) | NO |
| COc1cc(Cl)c2c(c1)CCN2c1nc(Cl)cn([C@H](C)C2CC2)c1=O | Corticotropin-releasing factor receptor 1 (Rattus norvegicus, UniProt P35353) | YES |
| COc1ccc(Nc2nc(Br)cn([C@H](C)C3CC3)c2=O)c(C(F)(F)F)n1 | Corticotropin-releasing factor receptor 1 (Rattus norvegicus, UniProt P35353) | NO |
| CC[C@H](C1CC1)n1cc(Cl)nc(Nc2cc(C)c(OC)cc2C)c1=O | Corticotropin-releasing factor receptor 1 (Rattus norvegicus, UniProt P35353) | YES |
| CCOc1cc(C)c(Nc2nc(Cl)cn([C@@H](COC)C3CC3)c2=O)cc1C | Corticotropin-releasing factor receptor 1 (Rattus norvegicus, UniProt P35353) | NO |

---

# Protocol Text: Displacement of [125I]sauvagine from CRF2 receptor in pig choroid plexus homogenate by gamma counting
# Format: tissue-based, Sus scrofa
pIC50: −log10 of the molar value.
pIC50 reference
Test Readout: pIC50

| Compound | Obs Value |
| --- | --- |
| COC[C@H](C1CC1)n1cc(Cl)nc(Nc2cc(C)c(OC)cc2C)c1=O | < 5.00 |
| COC[C@@H](C1CC1)n1cc(Cl)nc(Nc2cc(C)c(OC)cc2C)c1=O | < 5.00 |

---

# Protocol Text: Volume of distribution at steady state in cynomolgus monkey at 2 mg/kg, iv
# Type: ADME, organism-based, Macaca fascicularis
# Design: dose 2 mg/kg, route intravenous
# Protocol Conditions: in vivo, read-out: Vdss
Test Readout: Vd

| Compound | Obs Value |
| --- | --- |
| COC[C@@H](C1CC1)n1cc(Cl)nc(Nc2cc(C)c(OC)cc2C)c1=O | 7.7 L/kg |

---

# Protocol Text: Half life in Sprague-Dawley rat at 2 mg/kg, iv
# Type: ADME, organism-based
# Design: dose 2 mg/kg, route intravenous
# Protocol Conditions: in vivo

| Compound | half-life |
| --- | --- |
| COC[C@@H](C1CC1)n1cc(Cl)nc(Nc2cc(C)c(OC)cc2C)c1=O | 18 h |

---

# Assay System: Corticotropin-releasing factor receptor 1 (Homo sapiens)
# Sequence (P34998 whole entry): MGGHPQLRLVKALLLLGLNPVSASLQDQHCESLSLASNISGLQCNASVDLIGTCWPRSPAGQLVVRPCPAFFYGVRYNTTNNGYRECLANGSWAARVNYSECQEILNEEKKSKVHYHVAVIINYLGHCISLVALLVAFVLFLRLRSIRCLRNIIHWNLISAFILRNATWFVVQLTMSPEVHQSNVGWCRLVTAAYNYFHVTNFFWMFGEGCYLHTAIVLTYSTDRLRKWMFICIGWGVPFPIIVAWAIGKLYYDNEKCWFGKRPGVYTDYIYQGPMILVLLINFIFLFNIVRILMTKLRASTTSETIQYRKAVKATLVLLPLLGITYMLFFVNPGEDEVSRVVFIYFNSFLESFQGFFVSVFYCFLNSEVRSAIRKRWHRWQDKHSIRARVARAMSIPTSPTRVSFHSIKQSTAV
# Protocol Text: Antagonist activity at CRF1 receptor in human Y79 cells assessed as inhibition of CRF-stimulated cAMP production by HTRF method
pIC50: −log10 of the molar value.
Test Readout: pIC50

| Compound | Obs Value |
| --- | --- |
| COC[C@@H](C1CC1)n1cc(Cl)nc(Nc2cc(C)c(OC)cc2C)c1=O | 8.72 |

---

# Protocol Text: AUC in cynomolgus monkey at 10 mg/kg, po
# Type: ADME, organism-based, Macaca fascicularis
# Parameters: dose 10 mg/kg, route oral
# Protocol Conditions: plasma

| Compound | AUC |
| --- | --- |
| COC[C@@H](C1CC1)n1cc(Cl)nc(Nc2cc(C)c(OC)cc2C)c1=O | 0.41 µM·h |
